Every entry's value here was drawn from PubChem BioAssay AID278.

T/C values by entry
test system: nude mice, A549 intrarenal xenograft, tumor weight change; test: NCI In Vivo Anticancer Drug Screen. Data for tumor model A549 Human Adenocarcinoma of Lung with characteristics of Type II Alveolar Epithelial cells (intrarenal inoculation) in NU/NU BALB/C (nude) mice; settings: endpoint: mean tumor weight change; dose: 200.0 mg/kg/injection; schedule: Q04DX003 (ip); vehicle: saline; higher = larger tumour
Results filed as inconclusive are left out.

Known results for compounds:
INSERT INTO measurements (compound, value_observed) VALUES
  ('Nc1nc(Br)nc2c1ncn2C1CC(O)C(CO)O1 (centres undefined)', '74 % of control'),
  ('C/C(=N\NC(=O)c1ccccc1O)c1cccc(/C(C)=N/NC(=O)c2ccccc2O)n1', '77 % of control'),
  ('COc1ccc(C=C(C(=O)CCN(C)C)C(=O)CCN(C)C)cc1', '101 % of control');

# evaluate next
(Q) Give a short answer stating reported T/C for CC#CCOCC(O)CCl (centres undefined) .
(A) 90 % of control

====

test system: nude mice, A549 intrarenal xenograft, tumor weight change; test: NCI In Vivo Anticancer Drug Screen. Data for tumor model A549 Human Adenocarcinoma of Lung with characteristics of Type II Alveolar Epithelial cells (intrarenal inoculation) in NU/NU BALB/C (nude) mice; conditions: endpoint: mean tumor weight change; dose: 300.0 mg/kg/injection; schedule: Q04DX003 (ip); vehicle: suspension in saline; higher = larger tumour
Records with an inconclusive call do not appear.
MEASURED_QUANTITY: T/C

INSERT INTO assay_data (compound, target_desc, value_observed) VALUES
  ('CN1COc2c(n(C)c(=O)[nH]c2=O)C1', 'nude mice, A549 intrarenal xenograft, tumor weight change', '46 % of control'),
  ('N[C@@H](Cc1c[nH]c2ccccc12)C(=O)Nc1nncs1', 'nude mice, A549 intrarenal xenograft, tumor weight change', '67 % of control'),
  ('Nc1nc2n[nH]nc2c(=O)[nH]1', 'nude mice, A549 intrarenal xenograft, tumor weight change', '22 % of control'),
  ('CN(C)C(=O)Nc1ccc(Cl)cc1', 'nude mice, A549 intrarenal xenograft, tumor weight change', '74 % of control');

Consider the record given below.
(Q) Quickly give me recorded T/C for O=c1[nH]cnc2c1nnn2C1OC(CO)C(O)C1O (stereo not given)
(A) 47 % of control

====

Test system: nude mice, A549 intrarenal xenograft, tumor weight change
Test: NCI In Vivo Anticancer Drug Screen. Data for tumor model A549 Human Adenocarcinoma of Lung with characteristics of Type II Alveolar Epithelial cells (intrarenal inoculation) in NU/NU BALB/C (nude) mice
Settings: endpoint: mean tumor weight change; dose: 50.0 mg/kg/injection; schedule: Q04DX003 (ip); vehicle: saline with Tween-80; higher = larger tumour
Description: The antitumor activity of compounds was measured in mice bearing transplantable tumors. Survival or tumor size were measured and the results are expressed as the measurement made in the treated group (T) divided by the measurement made in the vehicle treated control group (C). The tumor model used in this assay is A549 Human Adenocarcinoma of Lung with characteristics of Type II Alveolar Epithelial cells (intrarenal inoculation) in NU/NU BALB/C (nude) mice
Records with an inconclusive call do not appear.
MEASURED_QUANTITY: T/C

Consider the reported T/C for these molecules:
INSERT INTO results (molecule, target_desc, measured_quantity, value_observed) VALUES
  ('ClC1(Cl)Cc2ccccc21', 'nude mice, A549 intrarenal xenograft, tumor weight change', 'T/C', '119 % of control'),
  ('CC1/C=C/C=C/CC/C=C/C=C/C=C/C=C/C(OC2OC(C)C(O)C(N)C2O)CC2OC(CC(O)C(O)CCC(O)CC(O)CC(O)CC(=O)OC(C)C(C)C1O)CC(O)C2C(=O)O (stereo not drawn)', 'nude mice, A549 intrarenal xenograft, tumor weight change', 'T/C', '69 % of control');

(Q) For the molecule CC(=O)C[n+]1ccc(C)cc1Sc1ccccc1C , report T/C.
(A) 112 % of control

(Q) Using the record for Cc1ccc(C(=Nc2ccccc2)N=P(c2ccccc2)(c2ccccc2)c2ccccc2)cc1 , state its measured T/C.
(A) 90 % of control

(Q) Supply reported T/C belonging to this molecule: CCOC(=O)C1=C(C)O/C(=C/c2cccc(Cl)c2)C1=O
(A) 51 % of control
